Recorded FACS M2-HK MFI by entry
Target: M2 protein of influenza A/Hong Kong/483/97 (H5N1) (influenza A virus A/Hong Kong/483/97 (H5N1))
Lab note: write values as number then unit, every time.

Just so you know, measured FACS M2-HK MFI for 3244_H04 (antibody, V domains shown) VH: EVQLVESGGGLVQPGGSLRLSCTASGLSVSSTYMNWVRQAPGKGLEWVSVFYSETRTYYADSVKGRFTVSRHNSNNTLYLQMNSLRAEDTAVYYCARVQRLSYGMDVWGQGTTVTVSS VL: DIQMTQSPSSLSASVGDRVTITCRASQSISTYLNWYQKRPGKAPKLLVYGASSLQSGVPSRFSGSGSGTDFTLTIASLQPEDSAVYYCQQTYSIPLFGQGTRLEIK came out at 963 MFI

// next entry
FACS M2-HK MFI reported for this binder 3248_P18 (antibody, V domains shown) VH: QVQLQESGPGLVKPSETLSLTCTVSGGSISAYHWSWIRQPPGKGLEWIGHIFDSGSTYYNPSLKSRVTISLDASKNQLSLRLTSVTASDTAIYYCARPLGSRYYYGMDVWGQGTTVTVSS VL: DIQMTQSPSSLSASVGDRVTITCRASQSISRYLNWYQQKPGKAPKLLIYGASTLQNGAPSRFSGSGSGTDFTLTISSLQPEDSATYLCQQSYSVPAFGGGTKVEVK : 967 MFI
